experiment: basal RPMI8226 mitochondrial membrane potential changes, profiling panel, cell-based, JC-1 fluorescence, 24 h, 100 nL compound (AID 1169); details: RPMI8226 myeloma, JC-1 mitochondrial potential fluorescence, higher = more signal; also: test concentration not given here
// N strictly below -0.1 in z-score; Y otherwise

Answered cases to consult:
# molecule, label
measured = [
    ("Cc1ccc(S[C@]2(C(=O)O)CC(=O)N(C(C)C)[C@@H]2c2ccc(CO)cc2I)cc1", "N"),
    ("O=C1c2ccccc2[C@](Cc2ccccc2I)(C(=O)NCCN2CCOCC2)[C@H](c2ccc(CO)cc2)N1Cc1ccccc1Cl", "N"),
    ("Cc1ccc(S[C@]2(C(=O)NCCCN(C)C)CC(=O)N(Cc3ccccc3C(F)(F)F)[C@@H]2c2ccc(CO)cc2)cc1", "Y"),
    ("CN(C)CCCCCCNC(=O)[C@@H]1C[C@@H]2C(=O)N[C@@H](Cc3ccccc3)C(=O)N2[C@@H]1c1ccc(O)cc1", "Y"),
    ("CCC(CC)C(O)C1C=CC2C(=O)NC(=O)C2N1Nc1ccccn1 (stereo not drawn)", "Y"),
    ("CC1CC/C=C\\[C@H]2OC34C=CCN(Cc5ccccc5)C(=O)[C@H]3N(CCCO)C(=O)[C@@H]4C2C(=O)O1 (stereo partly drawn)", "Y"),
]

Confirm if z-score reported for the molecule COC(=O)c1c(CC[C@@H](CO)NC(=O)NCCn2cc(C3(O)CCCC3)nn2)oc(C(C)=O)c1C(=O)OC is -0.1 or above. Y
